Tested on: NIH3T3
Assay: Cytotoxic Profiling of Annotated Libraries Using Quantitative High-Throughput Screening (AID 1296008); further: on the % scale 0 is the no-effect control and ±100 the full control effect; nearly all actives have a fitted effect of over 60% in size
Conditions: Five cell lines viability, CellTiter-Glo ATP luminescence, 48-72 h; hits give low values
Inconclusive results are not listed. The source made the active and inactive calls. The call rests on the fitted dose curve; in most records, active means well fitted inhibition curve with a large enough effect; inconclusive means small, poorly fitted or top-dose-only effect; inactive means flat fitted curve, though single readings scatter.
Assay Readout: max response

Here are 4 compounds together with their reported answers.
CC(=O)Oc1ccc2c(c1)CC[C@@H]1[C@@H]2CC[C@]2(C)[C@@H](O)CC[C@@H]12    2.78% (inactive)
CCCCC(=O)O[C@]1(C(=O)CO)CC[C@H]2[C@@H]3CCC4=CC(=O)CC[C@]4(C)[C@H]3[C@@H](O)C[C@@]21C    1.69% (inactive)
CCCCOc1ccc(C(=O)CCN2CCCCC2)cc1    -2.83% (inactive)
CCN(CCCCOC(=O)c1ccc(OC)c(OC)c1)C(C)Cc1ccc(OC)cc1 (stereo unspecified)    -18.2% (inactive)

Form entry - test system: NIH3T3; read-out: max response; compound: `CCCN1CCCC[C@H]1C(=O)Nc1c(C)cccc1C`
-2.9% (inactive)

Form entry - test system: NIH3T3; read-out: max response; compound: `CN1CCN(C(c2ccccc2)c2ccccc2)CC1`
3.7% (inactive)

Form entry - test system: NIH3T3; read-out: max response; compound: `Oc1ccc(O)cc1`
-10.8% (inactive)

Form entry - test system: NIH3T3; read-out: max response; compound: `C=C1C[C@H]2[C@@H]3C=C(C)C4=CC(=O)CC[C@]4(C)[C@H]3CC[C@]2(C)[C@@]1(OC(C)=O)C(C)=O`
-3.66% (inactive)

Form entry - test system: NIH3T3; read-out: max response; compound: `CC(=O)OCC(=O)[C@@]12N=C(C)O[C@@H]1C[C@H]1[C@@H]3CCC4=CC(=O)C=C[C@]4(C)[C@H]3[C@@H](O)C[C@@]12C`
-1.08% (inactive)

Form entry - test system: NIH3T3; read-out: max response; compound: CCOc1ccc(NC(=O)CC(C)O)cc1 (stereo unspecified)
4.45% (inactive)

Form entry - test system: NIH3T3; read-out: max response; compound: `Cc1c(C(C)C)c(=O)n(-c2ccccc2)n1C`
0.732% (inactive)

Form entry - test system: NIH3T3; read-out: max response; compound: `C[C@]12CCC(=O)C=C1[C@@H]1C[C@@H]1[C@H]1[C@@H]3[C@@H]4C[C@@H]4[C@@]4(CCC(=O)O4)[C@@]3(C)CC[C@@H]12`
-5.26% (inactive)

Form entry - test system: NIH3T3; read-out: max response; compound: `NC[C@H]1O[C@H](O[C@H]2[C@H](O)[C@@H](O[C@H]3O[C@H](CO)[C@@H](O)[C@H](N)[C@H]3O)[C@H](N)C[C@@H]2N)[C@H](N)[C@@H](O)[C@@H]1O`
1.61% (inactive)

---

Test: qHTS of pediatric cancer cell lines to identify multiple opportunities for drug repurposing: Primary screen for RD cells (AID 1347104);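 further: plate controls were DMSO for no effect and bortezomib for full effect; nearly all actives have a fitted effect of over 55% in size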
Details: RD rhabdomyosarcoma viability, CellTiter-Glo luminescence, 48 h; series mostly up to 46 µM
Records with an inconclusive call do not appear. Calls of active or inactive are those of the source. Calls follow the shape of the dose curve; as a rule, active = well fitted cell-killing curve with a large enough effect; inconclusive = small, poorly fitted or top-dose-only effect; inactive = flat fitted curve, though single readings scatter.
# valid calls are active, inactive; nothing else

Observe how each entry below is paired with its result.
CN1C(CCl)Nc2cc(Cl)c(S(N)(=O)=O)cc2S1(=O)=O (stereo not given)    inactive
CCOC(=O)/C=C(C)/C=C/C=C(C)/C=C/c1c(C)cc(OC)c(C)c1C    inactive
NCCc1ccn[nH]1    inactive
OC[C@H]1O[C@@H](n2cnc3c(=S)nc[nH]c32)[C@H](O)[C@@H]1O    inactive
Cc1c(N(C)CS(=O)(=O)O)c(=O)n(-c2ccccc2)n1C    inactive

What outcome does the record of this test show for `O=C1OC2(c3ccc(O)cc3Oc3cc(O)ccc32)c2ccccc21` ?
inactive

What outcome does the record of this test show for `CN(C)CCOc1ccccc1Cc1ccccc1` ?
inactive

What outcome does the record of this test show for `C[C@]12CC[C@H]3[C@@H](CCC4=CC(=O)CC[C@@]43C)[C@@H]1CC[C@@H]2C(=O)CO` ?
inactive

What outcome does the record of this test show for `CCN(CC)CCNC(=O)COc1ccc(Cl)cc1` ?
inactive

What outcome does the record of this test show for `COc1cc(OC)cc(OC)c1` ?
inactive

What outcome does the record of this test show for `O=C(CCCN1CCC(O)(c2ccc(Br)cc2)CC1)c1ccc(F)cc1` ?
inactive

What outcome does the record of this test show for `Cc1cc(O)c(C(C)C)cc1Cl` ?
inactive

What outcome does the record of this test show for `CC1(C)OC[C@@H](COC(=O)CCc2ccc(OC[C@@H](O)CNCCNC(=O)N3CCOCC3)cc2)O1` ?
inactive

What outcome does the record of this test show for `Oc1ccc(O)cc1` ?
inactive

What outcome does the record of this test show for `CC(=O)Oc1ccc(C(c2ccc(OC(C)=O)cc2)c2ccccn2)cc1` ?
inactive

What outcome does the record of this test show for `OC[C@@H](O)[C@@H](O[C@@H]1O[C@H](CO)[C@H](O)[C@H](O)[C@H]1O)[C@H](O)[C@@H](O)CO` ?
inactive

---

Molecular target: Rap guanine nucleotide exchange factor 3 (Homo sapiens) (UniProt O95398)
Sequence (O95398 whole entry, looked up): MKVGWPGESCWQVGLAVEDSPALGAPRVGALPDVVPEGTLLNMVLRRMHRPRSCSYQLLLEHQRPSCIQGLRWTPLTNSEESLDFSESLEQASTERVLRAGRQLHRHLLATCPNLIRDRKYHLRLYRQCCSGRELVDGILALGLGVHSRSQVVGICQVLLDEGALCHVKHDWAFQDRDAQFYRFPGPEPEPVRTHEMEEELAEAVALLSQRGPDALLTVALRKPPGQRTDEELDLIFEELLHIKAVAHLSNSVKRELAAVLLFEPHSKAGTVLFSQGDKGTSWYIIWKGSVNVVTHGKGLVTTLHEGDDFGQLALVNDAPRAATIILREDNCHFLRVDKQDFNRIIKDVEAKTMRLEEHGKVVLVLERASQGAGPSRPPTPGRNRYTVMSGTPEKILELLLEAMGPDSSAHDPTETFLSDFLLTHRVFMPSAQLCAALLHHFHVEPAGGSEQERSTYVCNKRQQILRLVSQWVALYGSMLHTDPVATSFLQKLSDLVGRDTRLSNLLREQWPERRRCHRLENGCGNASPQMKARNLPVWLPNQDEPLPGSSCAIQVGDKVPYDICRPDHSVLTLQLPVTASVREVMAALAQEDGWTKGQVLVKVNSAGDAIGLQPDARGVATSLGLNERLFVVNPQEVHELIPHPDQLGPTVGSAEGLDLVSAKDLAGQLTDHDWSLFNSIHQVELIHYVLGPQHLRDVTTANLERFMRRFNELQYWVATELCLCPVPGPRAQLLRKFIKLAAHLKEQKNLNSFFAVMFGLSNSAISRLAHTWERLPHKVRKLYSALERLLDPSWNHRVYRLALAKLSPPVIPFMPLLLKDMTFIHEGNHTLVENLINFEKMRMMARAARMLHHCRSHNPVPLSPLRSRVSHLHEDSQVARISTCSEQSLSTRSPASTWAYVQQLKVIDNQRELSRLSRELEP
Assay: Confirmatory qHTS for antagonist of cAMP-regulated guanine nucleotide exchange factor 3 (EPAC1) (AID 1645880); further: nearly all actives have a fitted effect of over 55% in size
Conditions: EPAC1 Rap1B-BODIPY-GDP exchange, fluorescence; series mostly up to 115 µM
Results filed as inconclusive are left out. The source made the active and inactive calls. Calls come from the whole dose curve; as a rule, active = well fitted inhibition curve with a large enough effect; inconclusive = small, poorly fitted or top-dose-only effect; inactive = no such curve, though single readings can be large or run the other way.
# valid calls are 1 for active, 0 for inactive; nothing else

Observe how each entry below is paired with its result.
O=C(Nc1ccc(Oc2ccc(Cl)cc2)c(Cl)c1)c1cc(I)cc(I)c1O    1
CC1=C(C(=O)OC(C)C)C(c2cccc([N+](=O)[O-])c2)C(C(=O)OC2CN(C(c3ccccc3)c3ccccc3)C2)=C(N)N1 (stereo not drawn)    0
CC(=O)Oc1ccc2c(c1)CC[C@@H]1[C@@H]2CC[C@]2(C)[C@@H](O)CC[C@@H]12    0
COc1cccc2c1C(=O)c1c(O)c3c(c(O)c1C2=O)C[C@@](O)(C(C)=O)C[C@@H]3O[C@H]1C[C@H](N)[C@H](O)[C@H](C)O1    0
Cc1cc(N)c2cc(NC(=O)Nc3ccc4nc(C)cc(N)c4c3)ccc2n1    1
c1ccc(-c2ccc(C(c3ccccc3)n3ccnc3)cc2)cc1 (stereo not drawn)    0
CC(C)C[C@H]1C(=O)N2CCC[C@H]2[C@]2(O)O[C@](NC(=O)[C@@H]3C=C4c5cccc6[nH]c(Br)c(c56)C[C@H]4N(C)C3)(C(C)C)C(=O)N12    0

What outcome does the record of this test show for `COc1cc2c(cc1O)CC[C@@H]1[C@@H]2CC[C@]2(C)[C@@H](O)CC[C@@H]12` ?
0

---

Experiment: qHTS of pediatric cancer cell lines to identify multiple opportunities for drug repurposing: Confirmatory screen for TC32 cells (AID 1347118);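 further: cells exposed to compound for 48 h before the read; nearly all actives have a fitted effect of over 65% in size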
Conditions: TC32 Ewing sarcoma cells viability qHTS; series mostly up to 45.9 µM
Method: Drug repurposing or repositioning has been offered as a strategy for drug development in oncology programs. […] [1] Shen, M et al. Quantitative high-throughput phenotypic screening of pediatric cancer cell lines identifies multiple opportunities for drug repurposing. […] Cells were assayed in growth media at a density of 500-1,000 cells/well. […] After a 15min incubation at room temperature, samples were analyzed for luminescence intensity using a ViewLux High-throughput CCD imager equipped with clear filters.
Results filed as inconclusive are left out. Calls of active or inactive are those of the source. Calls follow the shape of the dose curve; as a rule, active = well fitted cell-killing curve with a large enough effect; inconclusive = small, poorly fitted or top-dose-only effect; inactive = no such curve, though single readings can be large or run the other way.
# valid calls are active, inactive; nothing else

Observe how each entry below is paired with its result.
CCC(C(=O)OCCN(CC)CC)c1ccccc1 (centres undefined)    active
C=C1C[C@H]2[C@@H]3C=C(C)C4=CC(=O)CC[C@]4(C)[C@H]3CC[C@]2(C)[C@@]1(OC(C)=O)C(C)=O    active
CC1(C)O[C@@H]2C[C@H]3[C@@H]4CCC5=CC(=O)CC[C@]5(C)[C@@]4(F)[C@@H](O)C[C@]3(C)[C@]2(C(=O)CCl)O1    inactive
CCCCC(CC)CN=C(N)NC(N)=NCCCCCCN=C(N)NC(N)=NCC(CC)CCCC (centres undefined)    active
COc1cccc2c1C(=O)c1c(O)c3c(c(O)c1C2=O)C[C@@](O)(C(=O)CO)C[C@@H]3O[C@H]1C[C@H](N)[C@H](O)[C@H](C)O1    active
CC(=O)Oc1ccc2c(c1)CC[C@@H]1[C@@H]2CC[C@]2(C)[C@@H](O)CC[C@@H]12    active
OC[C@H]1O[C@@H](n2cnc3c(=S)nc[nH]c32)[C@H](O)[C@@H]1O    active
CN(C)C(=S)SC(=S)N(C)C    active

Read the next record carefully.
What outcome does the record of this test show for `O=C(CCCN1CCC(O)(c2ccc(Br)cc2)CC1)c1ccc(F)cc1` ?
active

---

Target: Cytochrome P450 2C9 (Homo sapiens)
Assay: Cytochrome P450 family 2 subfamily C member 9 (CYP2C9) small molecule antagonists: luciferase biochemical (cell-free) qHTS assay (AID 1645842); further: nearly all actives have a fitted effect of over 55% in size
Conditions: P450-Glo CYP2C9 enzyme assay, luciferin luminescence; series mostly up to 57.4 µM
Text: National Center for Advancing Translational Sciences [NCATS] Assay Overview: Cytochrome P450 (CYP) enzymes are membrane-bound hemeproteins that play a key role in metabolism of drugs and xenobiotics. Assaying the effect of chemicals on CYP isozymes is useful to minimize the adverse drug reactions and toxicities in drug development process. […] The luciferin products formed are detected with a luciferin detection reagent, and the amount of light produced is proportional to CYP activity. […]
Records with an inconclusive call do not appear. The source made the active and inactive calls. Calls follow the shape of the dose curve; as a rule, active = well fitted inhibition curve with a large enough effect in the repeat runs; inconclusive = weak or mixed curves; inactive = no such curve, though single readings can be large or run the other way.
# valid calls are active, inactive; nothing else

Oc1ccc(O)cc1    inactive
CC(C)(C)NC(=O)[C@@H]1CN(Cc2cccnc2)CCN1C[C@@H](O)C[C@@H](Cc1ccccc1)C(=O)N[C@H]1c2ccccc2C[C@H]1O    inactive
N[C@@H](CCC(=O)N[C@@H](CS)C(=O)NCC(=O)O)C(=O)O    inactive

What outcome does the record of this test show for `Cc1cccn2c(=O)c(-c3nnn[nH]3)cnc12` ?
inactive

What outcome does the record of this test show for `CCCCCCC[N+](CC)(CC)CCCCc1ccc(Cl)cc1` ?
inactive

What outcome does the record of this test show for `NC(=NCCCCCCN=C(N)/N=C(\N)Nc1ccc(Cl)cc1)/N=C(\N)Nc1ccc(Cl)cc1` ?
active

What outcome does the record of this test show for Cc1c(F)c(N2CCNC(C)C2)cc2c1c(=O)c(C(=O)O)cn2C1CC1 (stereo unspecified) ?
inactive

What outcome does the record of this test show for `Oc1c(I)cc(I)c2cccnc12` ?
inactive

What outcome does the record of this test show for `CNCC[C@@H](Oc1ccccc1C)c1ccccc1` ?
inactive

What outcome does the record of this test show for `CCCSS/C(CCO)=C(\C)N(C=O)Cc1cnc(C)nc1N` ?
inactive

What outcome does the record of this test show for O=C(OCC(O)CO)c1ccccc1Nc1ccnc2cc(Cl)ccc12 (stereo unspecified) ?
active
